Measured TGI values are reported for all entries that follow.
Test system: MOLT-4 leukemia
Assay: NCI tumour cell line growth inhibition, 48 h
State just the number; it will be interpreted in µM.

Recorded results for 3 compounds are shown here.
CC(=O)OCC1OC(O[C@@H]2C[C@H]3C(C)(C)[C@H](OC(C)=O)CC[C@]3(C)[C@H]3CC[C@]4(C)C(=CC[C@H]4[C@@H](C)C[C@@H](O)[C@H](O)C(C)(C)O)[C@@]32C)C(O)C(O)C1O (stereo not given in full) | 31.8
Cc1ccc(/C=C/C(=O)C(C)C)cc1 | 76.9
O=C(Nc1ccc(Cl)cc1F)c1cc(F)ccc1O | 4.77

Now turn to the next compound.
Tell me TGI of `COc1cc(/C=C/C=C2\CCC/C(=C\C=C\c3ccc(O)c(OC)c3)C2=O)ccc1O` when tested on MOLT-4 leukemia. 10.4

---

Test system: DMS 273 small cell lung
Assay: NCI tumour cell line growth inhibition, 48 h
The following compounds are shown together with reported TGI values.

Example compounds with recorded TGI:
Cc1cc2c(=O)cc(-c3ccc(C(F)(F)F)cc3)oc2c(C(=O)O)c1C | > 100 µM
O=C(CSc1nnc(Cc2ccccc2)o1)Nc1ccccc1Cl | > 100 µM

Now consider the entry below.
Give the reported value of TGI for this record: `O=C(O)c1c([N+](=O)[O-])cc(C(F)(F)F)cc1[N+](=O)[O-]` > 100 µM

---

Test system: SN12C renal
Assay: NCI tumour cell line growth inhibition, 48 h
readout: TGI

Please supply the value of reported TGI for the item `CC(C)[C@H]1CO[C@@H]2O[C@H](C)CC(=O)N21` > 100 µM

Check the records and state TGI for O=C1OCC2=C1C(c1cccc(C(F)(F)F)c1)c1cc3c(cc1N2CCO)OCO3 (stereo unspecified) > 50 µM

Tell me its TGI given COC(=O)/C(=N\N)C(C(=O)C(=O)Nc1cccc([N+](=O)[O-])c1)c1nc2ccc(C(=O)c3ccccc3)cc2[nH]c1=O (stereo unspecified) as the entry. > 100 µM

Find the measured TGI of O=C1NC(=O)[C@@H](OCC2CCCCC2)[C@@H]2OCC3OC(C(O)C3O)C12 (stereo partly specified) and report it. > 100 µM

Please supply the value of reported TGI for the item `N#Cc1c(N)c2c(c(-c3ccccc3)c1-c1ccccc1)C(=O)N(Nc1ccccc1)C2=O` > 100 µM

Please list TGI recorded for the compound `Cc1ccc(-c2cn3c(nc4ccccc43)c(-c3ccccc3)n2)cc1` > 100 µM

---

System: LOX IMVI melanoma
Experiment: NCI tumour cell line growth inhibition, 48 h; in the data active = GI50 below about 0.43 µM; inactive = the rest
Please answer using one outcome listed in active, inactive

Consider the worked cases shown below.
CCN1/C(=C/C=C/C=C/c2sc3ccccc3[n+]2CC)Sc2ccccc21 | active
COc1cc(/C=C/C(=O)NC[C@]2(O)CCC3C4CCc5cc(O)ccc5C4CCC32C)ccc1O (some centres undefined) | inactive
COc1ccc(N2CCN(CN3CCN(c4ccc(OC)cc4)C3)C2)cc1 | inactive

Please let me know the test result on file for COC1=C(C)C(=O)C2=C(C1=O)C(CO)N1C(C#N)C3CC4C(C1C2N1CCOC41)N3C (centres undefined) . active

---

Tested on: M19-MEL melanoma
Test: NCI tumour cell line growth inhibition, 48 h
readout: TGI

O=C1NC2(CCCC2)/C(=N\O)C12CCCC2 | > 100 µM
CN1CCC(C(=O)NNc2ccccc2)CC1 | > 79.7 µM
O=C(O)c1c([N+](=O)[O-])cc(C(F)(F)F)cc1[N+](=O)[O-] | > 100 µM
Cc1cccc(Cl)c1NC(N)=S | > 100 µM
NC(=S)N/N=C1\C(=O)N(CCc2ccccc2)C(=O)C1C(=O)NCCc1ccccc1 (stereo not drawn) | > 100 µM
CC(C)[C@](O)(C(=O)OCC1=CC[N+]2([O-])CC[C@@H](O)[C@@H]12)[C@H](C)O (stereo partly drawn) | > 10000 µM
CCOC(=O)C1(Br)C(c2ccccc2)NC(=O)N(C2OC(COC(=O)c3ccccc3)C(OC(=O)c3ccccc3)C2OC(=O)c2ccccc2)C1(C)Br (stereo not drawn) | > 100 µM

Supply recorded TGI for `O=C(c1ccccn1)c1nc(-c2ccc(Cl)c(Cl)c2)nc2ccc(Cl)cc12` here. > 100 µM

---

Tested on: OVCAR-4 ovarian
Test: NCI tumour cell line growth inhibition, 48 h
readout: TGI

COC(=O)C1=C([C@H]2COC(C)(C)O2)[C@H]2C[C@@H]1[C@@H]1OC(C)(C)O[C@@H]12 | > 100 µM
N.N.N.N.N.N#N.[Cl-].[Os+7] | > 100 µM

Lab note: next compound to report on.
Kindly indicate its recorded TGI. Item: CC1C(/C=C/c2ccoc2)ON2CCCC12 (stereo not drawn) > 100 µM

---

System: A549 NSCLC
Assay: NCI tumour cell line growth inhibition, 48 h
Entries annotated with measured TGI

// below: answered molecules
Nc1c(S(=O)(=O)O)cc(Nc2cccc(S(N)(=O)=O)c2)c2c1C(=O)c1ccccc1C2=O | > 100 µM
O=S(=O)(CC#CCCCOCC#Cc1ccccc1C#CCS(=O)(=O)c1ccccc1)c1ccccc1 | > 100 µM

API: the following record is the query input.
Quote TGI reported for `Cc1cc(S(=O)(=O)Nc2nc3ccccc3[nH]2)c(S)cc1Cl` please. > 100 µM

---

System: HCT-15 colon
Test: NCI tumour cell line growth inhibition, 48 h
As shown below, each of these compounds has a reported GI50 value.

COc1ccc2c(c1)CC[C@@H]1[C@@H]2CC[C@]2(C)c3[nH]ncc3C[C@@H]12 | 16800 nM

Consider the additional compound presented here.
Please give the documented GI50 of `CC(C)(C)CC(C)(C)N(CSc1ccc(Cl)cc1)CSc1ccc(Cl)cc1` 2290 nM

---

Tested on: SK-OV-3 ovarian
Assay: NCI tumour cell line growth inhibition, 48 h
TGI vs 20 µM: at or above is 1 (yes), below is 0 (no).

# example entries with known answers
O=C(N[C@@H]1C=CCC[C@@H]1c1ccccc1)OCc1ccccc1 | 1 (yes)
COC1/C=C\OC2(C)Oc3c(C)c(O)c4c(O)c(c(/C=N\OCCCc5ccccc5)c(O)c4c3C2=O)NC(=O)/C(C)=C\C=C/C(C)C(O)C(C)C(O)C(C)C(OC(C)=O)C1C (stereo not given) | 0 (no)
C=CCC(N[C@@H](CO)c1ccccc1)c1ccccn1 (stereo not given in full) | 1 (yes)
COC(=O)CCCC(=O)NC1=C(Nc2ccccc2)C(=O)c2ccccc2C1=O | 1 (yes)
COC(=O)c1ccc(/C=C2\Cc3ccccc3C2=O)cc1 | 1 (yes)
C[C@@H]1[C@H]2[C@H](C=C3[C@@H]4CC[C@H]5Cc6nc7c(nc6C[C@]5(C)[C@H]4C[C@@H](O)[C@@]32C)C[C@@H]2CC[C@H]3C4=C[C@@H]5O[C@@]6(CC[C@](C)(CO)O6)[C@@H](C)[C@@]5(O)[C@@]4(C)[C@H](O)C[C@@H]3[C@@]2(C)C7)O[C@]12CCC(C)(C)O2 | 0 (no)

Does the compound Cc1cc(O)c(C2=NN(c3ccc(S(N)(=O)=O)cc3)C(c3ccccc3O)C2)cc1Cl (stereo not given) have recorded TGI that is 20 µM or more? 0 (no)

Determine whether measured TGI meets or exceeds 20 µM for `COc1cccc2c1nc1cccc(OC)c1[n+]2[O-]` 0 (no)

Check the entry C=C1C(=O)OC2/C=C(\C)C(=O)CC3OC(C)(C)OC3(C)CC(OC(=O)/C(C)=C/C)C12 (stereo not given) : does TGI equal or exceed 20 µM? 1 (yes)

Can `COc1cc(OC)cc(-n2c(N)c(-c3nc4ccccc4s3)c3ccc([N+](=O)[O-])cc3c2=O)c1` be said to have TGI at or above 20 µM? 1 (yes)

---

Listed here are molecules together with their documented TGI.
Tested on: MALME-3M melanoma
Assay: NCI tumour cell line growth inhibition, 48 h

Cc1cc2c(=O)cc(-c3ccc(C(F)(F)F)cc3)oc2c(C(=O)O)c1C | > 100 µM
O=[N+]([O-])c1cc2c(cc1O)[nH]c1cccc([N+](=O)[O-])c12 | > 100 µM
N.N.N.N.N.N#N.[Cl-].[Os+7] | > 100 µM
O=C1NC2(CCCC2)/C(=N\O)C12CCCC2 | > 100 µM
Cc1ccc(S(=O)(=O)NC(=O)NC(C(=O)O)C(C)O)cc1 (stereo not drawn) | > 100 µM
Cc1cccc(Cl)c1NC(N)=S | > 100 µM
CCN(CC)C(=S)SC(=S)N(CC)CC | > 58.4 µM
CCCCNC(=O)OCC(COc1ccccc1OC)OC(=O)NCCCC (stereo not drawn) | > 100 µM
O=[N+]([O-])c1cccc(/C=C/c2ccccn2)c1 | > 100 µM
CC(=O)c1cccc(Nc2c3ccccc3nc3occc23)c1 | 27.6 µM

Consider the molecule `CN(C)c1ccc(/C=C/c2ccnc3ccc4ccccc4c23)cc1` tested on MALME-3M melanoma; state its TGI. 58.5 µM

# return TGI of `Clc1nc(Cl)c2ncn(C/C=C/Cn3cnc4c(Cl)nc(Cl)nc43)c2n1` (system: MALME-3M melanoma) 52.5 µM

Param request: TGI | system MALME-3M melanoma | item `COc1ccc(OC)c(/C=C/C(=O)C(C)(C)C)c1` 45.3 µM
